Cited source for all entries: paper PMC2597655

Target: DNA polymerase beta WT (UniProt P06766 1-335)
Assay: EMSA
quantity_kind: pKd
Give bare numbers, as −log10 of the molar value.

[ask] Give the measured pKd for CII5T A:A (5 nt gap, mispaired primer terminus) (dsDNA, 5'-phosphate on downstream oligo and template) DNA 1: TTGCGACTTATCAACGCCCACAA DNA 2: GCTGTCTTCTCAGTTTC DNA 3: GAAACTGAGAAGACAGCTACTGATGTGGGCGTTGATAAGTCGCAA
[reply] 8.22
